target: HLA-A*0203 (human); test: inhibition of 125I-labelled probe peptide binding to purified HLA, gel filtration; settings: remark: other sources report otherwise
assay.endpoint: IC50 (nM)
Give bare numbers, in nM.

Worked cases, answers included:
| binder | IC50 / nM |
| --- | --- |
| HLLSNDMCARV (modifications not checked) [Peptide 1418.67 (HuK2.177.V11) …] | 5.3 |
| SLQCVSLHL (modifications not checked) [Peptide 60.0191 (HuK2.170) …] | 417 |
| FLRPRSLQCV (modifications not checked) [Peptide 1419.07 (HuK2.165) …] | 4.2 |

// field: IC50; key: SLHLLSNDMCV (modifications not checked) [Peptide 1418.66 (HuK2.175.V11) …] ; value = 10
